These measurements were taken from PubChem BioAssay AID720717.

Tested on: LANA (ORF73) N-terminal peptide binding to nucleosomes, Human herpesvirus 8
Assay: LANA N-terminal peptide–nucleosome interaction blockers – biochemical, fluorescence polarization, FITC-LANA1-23, chicken nucleosomes, primary screen (AID 720717)
Settings: FITC-LANA1-23 / chicken nucleosome fluorescence polarization; active compounds read low
The whole screen tested about 51,000 compounds, of which about 150 (0.29%) were called active. The full list was thinned out, with actives kept by preference.

{"Molecule": "CCc1ccc(NS(=O)(=O)c2cnn(CC)c2)cc1", "z-score": -1.21}
{"Molecule": "COc1ccc(CNC(=O)NC2CCN(S(=O)(=O)c3ccc(OC)cc3)CC2)cc1", "z-score": 0.0685}
{"Molecule": "O=C1NN=C(c2ccccc2)C1CCO (configuration not stated)", "z-score": -0.74}
{"Molecule": "Cc1cc(-c2ccc(S(=O)(=O)NC3CCCc4ccccc43)s2)n[nH]1 (configuration not stated)", "z-score": 0.15}
{"Molecule": "O=C(Nc1ccc(-c2cn3cccnc3n2)cc1)C1CCCC1", "z-score": 0.642}
{"Molecule": "CC(=O)Oc1cc(-c2ccccc2)nn1C", "z-score": 0.038}
{"Molecule": "CCOC(=O)c1ccc2c(c1)sc1nc(-c3cccc(OC)c3)cn12", "z-score": -1.21}
{"Molecule": "O=C(NCc1ccccn1)c1ccc2c(c1)CCN2S(=O)(=O)c1ccc(Cl)cc1", "z-score": -0.107}
{"Molecule": "O=C(CSc1nc2ncccc2o1)NCc1ccco1", "z-score": 0.0485}
{"Molecule": "CC1CCC(NC(=O)CCCn2ncn3c(cc4occc43)c2=O)CC1 (configuration not stated)", "z-score": 0.64}
{"Molecule": "CCCCc1ccc(NC(=O)CC)c(C)c1", "z-score": 1.52}
{"Molecule": "O=C(CC1OCCN(Cc2ccccc2)C1=O)Nc1ccc(F)cc1 (configuration not stated)", "z-score": 0.194}

---

z-score by entry:
Test system: LANA (ORF73) N-terminal peptide binding to nucleosomes, Human herpesvirus 8
Assay: LANA N-terminal peptide–nucleosome interaction blockers – biochemical, fluorescence polarization, FITC-LANA1-23, chicken nucleosomes, primary screen (AID 720717)
Conditions: FITC-LANA1-23 / chicken nucleosome fluorescence polarization; active compounds read low
Hit rate of the full screen: of about 51,000 compounds, about 150 (0.29%) were called active. What follows is part of a selection rich in actives, with near analogues and random picks from the rest.

{"Compound": "CN(Cc1ccccc1)C1(O)C(=O)Nc2c(C(F)(F)F)cccc21 (stereo unspecified)", "z-score": 0.254}
{"Compound": "COCCNC(=O)N1c2ccccc2Sc2ccccc21", "z-score": 0.827}
{"Compound": "Cc1occc1-c1nnc2n1N=C(c1ccc(-c3cc(Cl)ccc3Cl)o1)CS2", "z-score": -0.0445}
{"Compound": "CCc1ccc(N2COc3ccc4c(CC)cc(=O)oc4c3C2)cc1", "z-score": 0.115}
{"Compound": "CCN1C(=O)C2C(c3cccs3)NC(C)(C(=O)OC)C2C1=O (stereo unspecified)", "z-score": -0.124}
{"Compound": "COc1cccc(/C=C2/Sc3ccc(C(=O)NCc4ccco4)cc3NC2=O)c1", "z-score": -0.179}
{"Compound": "O=C(CSc1nnc(Cc2cc(=O)[nH]c(=O)[nH]2)n1-c1ccccc1)NCc1ccco1", "z-score": 0.726}
{"Compound": "CN1C(C)(C)CC(NC(=O)Nc2ccc(F)cc2)CC1(C)C", "z-score": 0.033}
{"Compound": "O=C(C1CCN(Cc2cnn(-c3ccccc3)c2-n2cccc2)CC1)N1CCC2(CC1)OCCO2", "z-score": 0.0245}
{"Compound": "CCOC(=O)C(N)Cc1c[nH]c2ccccc12 (stereo unspecified)", "z-score": 0.0765}
{"Compound": "CN(C)c1ccc(-c2nnc(-c3cccnc3)o2)cc1", "z-score": -0.139}

---

Test system: LANA (ORF73) N-terminal peptide binding to nucleosomes, Human herpesvirus 8
Assay: LANA N-terminal peptide–nucleosome interaction blockers – biochemical, fluorescence polarization, FITC-LANA1-23, chicken nucleosomes, primary screen (AID 720717)
Conditions: FITC-LANA1-23 / chicken nucleosome fluorescence polarization; active compounds read low
Hit rate of the full screen: of about 51,000 compounds, about 150 (0.29%) were called active. The list comes from a sample in which actives are over-represented; it also holds close analogues and randomly drawn compounds.
# note: exactly -0.09 is not below, so it is not fulfilled; use fulfilled for z-score strictly under it

{"Compound": "Nc1nc(SC23CC4CC(CC(C4)C2)C3)ns1", "Cat": "fulfilled"}
{"Compound": "COc1ccc(CCN(C)C2CCNCC2)cc1OC", "Cat": "not fulfilled"}
{"Compound": "COc1cc(Br)cc(/C=N/O)c1O", "Cat": "fulfilled"}
{"Compound": "CCN(CC)S(=O)(=O)c1ccc2c(c1)CC(C)N2C(=O)C1CC1 (configuration not stated)", "Cat": "not fulfilled"}
{"Compound": "CCCCSC1=NC(=O)CC(=O)N1", "Cat": "fulfilled"}
{"Compound": "Cc1ccc(C2=Nc3ccccc3N(CC(=O)Nc3ccc4c(c3)OCO4)C(=O)C2)cc1", "Cat": "fulfilled"}
{"Compound": "CN1C(=O)CC(N2CCN(C/C=C/c3ccccc3)CC2)C1=O (configuration not stated)", "Cat": "not fulfilled"}
{"Compound": "O=C(O)COc1ccc(CN2CCCC2)cc1", "Cat": "not fulfilled"}
{"Compound": "Cn1c(=O)c2c(nc(N3CCNCC3)n2C)n(C)c1=O", "Cat": "not fulfilled"}
{"Compound": "CN(C)/C=C/c1nc(C(F)(F)F)c(C#N)s1", "Cat": "not fulfilled"}
{"Compound": "Cc1ccc2c(c1)-c1onc(C(=O)N3CCCCC3)c1CO2", "Cat": "fulfilled"}

---

System: LANA (ORF73) N-terminal peptide binding to nucleosomes, Human herpesvirus 8
Test: LANA N-terminal peptide–nucleosome interaction blockers – biochemical, fluorescence polarization, FITC-LANA1-23, chicken nucleosomes, primary screen (AID 720717)
Details: FITC-LANA1-23 / chicken nucleosome fluorescence polarization; active compounds read low
Out of some 51,000 compounds screened, about 150 (0.29%) were called active. This is one part of a sample in which actives are shown more often than they occur.

{"Molecule": "Nc1no[n+]([O-])c1C(=O)NCCO", "z-score": 0.91}
{"Molecule": "CCNC(=S)N1CCN(CCN=CC2=C(O)CC(C)(C)CC2=O)CC1", "z-score": 0.296}
{"Molecule": "CC(=O)N1CCC(N(c2ccc3c(c2)OCO3)S(=O)(=O)c2ccccc2)CC1", "z-score": 0.764}
{"Molecule": "Cc1ccccc1-c1n[nH]n2c1nc(=O)c1cc(Cl)ccc12", "z-score": 0.639}
{"Molecule": "Cc1cc(N2CCOCC2)nc2ccc(NC(=O)CCC(=O)NC3CCCCC3)cc12", "z-score": 0.0965}
{"Molecule": "O=C(Cn1c(=O)oc2ccccc21)NC1CCN(Cc2ccccc2)CC1", "z-score": -0.221}
{"Molecule": "O=C1C=CC(=O)N1Nc1ccccc1", "z-score": 0.669}
{"Molecule": "NCc1cc(C2CC2)n[nH]1", "z-score": -0.734}
{"Molecule": "O=c1[nH]ncc2c1[nH]c1ccccc12", "z-score": 0.221}
{"Molecule": "NNC(=O)Cc1csc(CC(N)=O)n1", "z-score": -1.71}
{"Molecule": "Cc1cc(C)n(C(C)CC(=O)Nc2ccc(CN3CCC(C)CC3)cc2)n1 (centres undefined)", "z-score": -0.62}
{"Molecule": "Cc1ccsc1/C=N/c1sc2c(c1C#N)CCCC2", "z-score": -0.764}
{"Molecule": "CC1=CC(C)C2(COC(CN3CCCCC3)OC2)C(C)C1 (centres undefined)", "z-score": -0.0595}
{"Molecule": "CCNC(=O)CC1C(=O)N(c2ccc(OC)cc2)C(=O)N1CCOC (centres undefined)", "z-score": -0.571}
{"Molecule": "Cc1ccc(NC(=O)CSC2=NC(=O)CC(=O)N2)cc1", "z-score": -0.876}
{"Molecule": "Cc1cc(N2CC(C)CC(C)C2)nc2ccc(NC(=O)CCC(=O)NCc3ccco3)cc12 (centres undefined)", "z-score": -1.27}
{"Molecule": "O=C(Nc1ccc(Cl)cc1)Nc1cc(C(=O)NCC2CCCO2)ccc1N1CC2CC(C1)c1cccc(=O)n1C2 (centres undefined)", "z-score": 0.571}
{"Molecule": "CCc1ccc2[nH]c(=O)c(CN(Cc3ccco3)C(=O)c3ccccc3)cc2c1", "z-score": 0.0145}
{"Molecule": "Cc1ccc(-c2nc3scc(CCNC(=O)Cc4ccccc4)n3n2)cc1", "z-score": -0.82}
{"Molecule": "CN(C)C(CNC(=O)c1cc2ccccc2oc1=O)c1ccco1 (centres undefined)", "z-score": -0.421}
{"Molecule": "CCn1c(N2CCN(C(=O)Nc3ccc(Cl)c(C(F)(F)F)c3)CC2)nc2ccccc21", "z-score": -1.36}
{"Molecule": "O=C(CSc1ncccn1)N1CCCC1", "z-score": -0.327}
{"Molecule": "S=c1[nH]nc(NCCc2ccccc2)s1", "z-score": 0.44}
{"Molecule": "C=CCOC(=O)c1cc(-c2ccc(/C=C3/NC(=S)NC3=O)o2)ccc1Cl", "z-score": 0.594}
